System: A-375
Assay: Phototoxicity against human A375 cells assessed as reduction in cell viability up to 500 nM preincubated for 24 hrs followed by exposure to light with fluence rate of 7.5 mW/cm2 at 10 J and measured after 24 hrs in presence of singlet oxygen scavenger sodium azide by MTT assay
Assay type: functional, cell-based
Active and inactive are the calls of the source. The rule behind the calls is not given here.
READOUT_LABEL: Activity

MOLECULE	TARGET_DESC	RESULT
OCc1nn2c(c1CO)CC1c3nc(cc4ccc([nH]4)c(-c4ccccc4)c4nc(cc5ccc([nH]5)c3-c3ccccc3)C=C4)C1C2 (centres undefined)	A-375	Active
COC(=O)c1nn2c(c1C(=O)OC)CC1c3nc(cc4ccc([nH]4)c(-c4ccccc4)c4nc(cc5ccc([nH]5)c3-c3ccccc3)C=C4)C1C2 (centres undefined)	A-375	Active
COC(=O)c1nn2c(c1C(=O)OC)CC1c3cc4ccc([nH]4)c(-c4ccccc4)c4nc(cc5ccc([nH]5)c(-c5ccccc5)c(n3)C1C2)C=C4 (centres undefined)	A-375	inactive
OCc1nn2c(c1CO)CC1c3cc4ccc([nH]4)c(-c4ccccc4)c4nc(cc5ccc([nH]5)c(-c5ccccc5)c(n3)C1C2)C=C4 (centres undefined)	A-375	inactive

----------
Property: Activity; scope: individual molecules
Tested on: A-375
Experiment: Induction of apoptosis in human A375 cells assessed as decrease in living cells at 500 nM preincubated for 24 hrs followed by exposure to light with fluence rate of 7.5 mW/cm2 at 10 J and measured after 24 hrs by Annexin-V/propidium iodide stainin-based FACS analysis
Type: functional
Design: scale not given: the % may be the effect or the level left

Answered examples (2):
MOLECULE	RESULT
COC(=O)c1nn2c(c1C(=O)OC)CC1c3cc4ccc([nH]4)c(-c4ccccc4)c4nc(cc5ccc([nH]5)c(-c5ccccc5)c(n3)C1C2)C=C4 (centres undefined)	>50%
COC(=O)c1nn2c(c1C(=O)OC)CC1c3nc(cc4ccc([nH]4)c(-c4ccccc4)c4nc(cc5ccc([nH]5)c3-c3ccccc3)C=C4)C1C2 (centres undefined)	>50%

Query molecule follows.
Q: May I ask what Activity has been recorded for OCc1nn2c(c1CO)CC1c3cc4ccc([nH]4)c(-c4ccccc4)c4nc(cc5ccc([nH]5)c(-c5ccccc5)c(n3)C1C2)C=C4 (centres undefined) ?
Result: >50%
